TESTED_SYSTEM: Melanocortin receptor 4 (Mus musculus, UniProt P56450)
Sequence (P56450 whole entry): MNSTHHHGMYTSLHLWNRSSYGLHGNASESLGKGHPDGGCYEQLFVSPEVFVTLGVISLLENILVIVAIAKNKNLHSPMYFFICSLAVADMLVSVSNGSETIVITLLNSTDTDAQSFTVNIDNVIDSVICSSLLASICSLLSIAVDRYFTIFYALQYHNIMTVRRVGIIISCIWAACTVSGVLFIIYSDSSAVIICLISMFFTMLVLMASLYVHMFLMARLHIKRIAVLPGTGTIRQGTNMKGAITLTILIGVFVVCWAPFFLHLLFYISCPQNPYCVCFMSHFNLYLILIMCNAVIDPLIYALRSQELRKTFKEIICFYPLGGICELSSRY
ASSAY_NAME: Agonistic activity against mouse MC4R
Type: functional
EXPERIMENTAL_ENDPOINT: EC50 (µM)
Output spec: scalar in µM, unitless text.

Req: Lab note: need EC50 for N=C(N)NCCCC(NC(=O)[C@@H](Cc1ccccc1)NC(=O)[C@H](Cc1cnc[nH]1)NC(=O)CCc1cccc2c1OCO2)C(N)=O (single isomer, unassigned) on Melanocortin receptor 4 (Mus musculus, UniProt P56450), anyone have it?
Resp: 25.5
